Known Relative Luciferase Units (RLU), CD80-Fe Cone 50 nM of a selection of molecules
- assayed-system: CD28 (Homo sapiens, UniProt P10747)
- procedure-summary: Jurkat/IL2 + K562/OKT3/PD-L1 reporter assay
- Type: cell-based
- Design: host or cells: Jurkat cells expressing an IL-2-luciferase reporter
- setup-conditions: Table E8; K562/OKT3/PD-L1 aAPC; 50 nM
measurement-name: Relative Luciferase Units (RLU), CD80-Fe Cone 50 nM

molecule | result
V22D/E35D/M47L/L70M/L97Q (protein, CD80 v283 ECD) VIHVTKEVKEVATLSCGHNVSDEELAQTRIYWQKDKKMVLTMMSGDLNIWPEYKNRTIFDITNNLSIVIMALRPSDEGTYECVVLKYEKDAFKREHQAEVTLSVKADFPTPSISDFETPTSNIRRIICSTSGGFPEPHLSWLENGEELNAINTTVSQDPETELYAVSSKLDFNMTTNHSFMCLIKYGHLRVNQTFNWNTTKQEHFPDN | 1542 RLU
E35D/M43I/M47V/K89N (protein, UniProt P33681 35-288, looked up, variant E35D M43I M47V K89N) T-lymphocyte activation …: VIHVTKEVKEVATLSCGHNVSVEELAQTRIYWQKDKKMVLTMISGDVNIWPEYKNRTIFDITNNLSIVILALRPSDEGTYECVVLKYENDAFKREHLAEVTLSVKADFPTPSISDFEIPTSNIRRIICSTSGGFPEPHLSWLENGEELNAINTTVSQDPETELYAVSSKLDFNMTTNHSFMCLIKYGHLRVNQTFNWNTTKQEHFPDNLLPSWAITLISVNGIFVICCLTYCFAPRCRERRRNERLRRESVRPV | 1094 RLU
E35D/M47V/A71G (protein, UniProt P33681 35-288, looked up, variant E35D M47V A71G) T-lymphocyte activation …: VIHVTKEVKEVATLSCGHNVSVEELAQTRIYWQKDKKMVLTMMSGDVNIWPEYKNRTIFDITNNLSIVILGLRPSDEGTYECVVLKYEKDAFKREHLAEVTLSVKADFPTPSISDFEIPTSNIRRIICSTSGGFPEPHLSWLENGEELNAINTTVSQDPETELYAVSSKLDFNMTTNHSFMCLIKYGHLRVNQTFNWNTTKQEHFPDNLLPSWAITLISVNGIFVICCLTYCFAPRCRERRRNERLRRESVRPV | 1190 RLU
V22L/Q27H/E35D/M47I/A71G (protein, CD80 v274 ECD) VIHVTKEVKEVATLSCGHNVSLEELAHTRIYWQKDKKMVLTMMSGDINIWPEYKNRTIFDITNNLSIVILGLRPSDEGTYECVVLKYEKDAFKREHLAEVTLSVKADFPTPSISDFETPTSNIRRIICSTSGGFPEPHLSWLENGEELNAINTTVSQDPETELYAVSSKLDFNMTTNHSFMCLIKYGHLRVNQTFNWNTTKQEHFPDN | 1123 RLU
